Tested on: S6K1
Details: concentration: 1 μM,replicates: in singlicate; n = 1;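 note: KINOMEscan kinase panel screen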
measured property: %Inh (%)

>>> print(df.to_string())
                                  structure  measured_property  meas_value
0  Cc1cc(C(=O)Nc2ccc(Oc3ccc4nc(NC(=O)C5CC5)cn4n3)cc2)nn1-c1ccccc1               %Inh           0
1   CC(C)Nc1cc(-c2ccc3c(N)n[nH]c3c2)nc(N)n1               %Inh           1
2  CN(C)CCOc1ccc(-c2cc(-c3c[nH]nc3-c3ccccn3)ccn2)cc1               %Inh           8

###

Test system: PLK4
Conditions: concentration: 1 μM,replicates: in singlicate; n = 1
measured property: %Inh (%)

>>> print(df.to_string())
                                    compound  tested_on  measured_property  meas_value
 0  Cl.Cl.Nc1nc(-c2ccc3c(N)n[nH]c3c2)cc(N2CCCC(NC(=O)c3ccccc3)C2)n1 (stereo not drawn)       PLK4               %Inh          16
 1  CN(C)CC(O)COc1ccc(Nc2nccc(-c3cnn4nc(N5CCOCC5)ccc34)n2)cc1 (stereo not drawn)       PLK4               %Inh          63
 2  C[C@@H]1CCN(C(=O)CC#N)C[C@@H]1N(C)c1ncnc2[nH]ccc12       PLK4               %Inh           0
 3   CC(C)Nc1cc(-c2ccc3c(N)n[nH]c3c2)nc(N)n1       PLK4               %Inh           0
 4  Cl.Cl.NC[C@H](CC1CCCCC1)NC(=O)c1cc(Br)c(-c2ccnc3[nH]ccc23)s1       PLK4               %Inh          15
 5  Cl.Oc1cc(-c2nc(-c3ccccc3)[nH]c2-c2ccncc2)ccc1Cl       PLK4               %Inh          17
 6  Cc1n[nH]c2ccc(-c3cc(OC[C@@H](N)Cc4ccccc4)cnc3-c3ccoc3)cc12.O=C(O)C(F)(F)F.O=C(O)C(F)(F)F       PLK4               %Inh           0
 7  Cc1cc(C(=O)Nc2ccc(Oc3ccc4nc(NC(=O)C5CC5)cn4n3)cc2)nn1-c1ccccc1       PLK4               %Inh           0
 8  Nc1nc(Nc2ccccc2)cc(-c2ccc3c(N)n[nH]c3c2)n1       PLK4               %Inh           6
 9  NC(=O)c1cc(-c2ccccc2)cc2c(C3CCNCC3)c[nH]c12       PLK4               %Inh           0
10  Cl.Cl.NC[C@H](Cc1ccc(C(F)(F)F)cc1)NC(=O)c1cc(Br)c(-c2ccnc3[nH]ccc23)s1       PLK4               %Inh           8
11  C[C@H]1Oc2cc(cnc2N)-c2c(nn(C)c2C#N)CN(C)C(=O)c2ccc(F)cc21       PLK4               %Inh        97.9
12  Cc1occc1-c1nc(N)c(OC[C@@H](N)Cc2c[nH]c3ccccc23)cc1-c1cc2c(C)n[nH]c2cn1       PLK4               %Inh           0
13  CNC(=O)c1ccccc1Sc1ccc2c(/C=C/c3ccccn3)n[nH]c2c1       PLK4               %Inh        97.7
14  O=C(NCCNc1ccnc(NCc2ccc(F)cc2)n1)c1cc2ccccc2s1       PLK4               %Inh          74

###

System: GCN2(Kin.Dom.2,S808G)
Construct: gene EIF2AK4
Conditions: concentration: 1 μM,replicates: in singlicate; n = 1
measured property: %Inh (%)

>>> df
                                    compound              tested_on  unit_info  meas_value
 0  Cl.Cl.NC[C@H](Cc1ccc(C(F)(F)F)cc1)NC(=O)c1cc(Br)c(-c2ccnc3[nH]ccc23)s1  GCN2(Kin.Dom.2,S808G)          %           4
 1  Cc1cc(C(=O)Nc2ccc(Oc3ccc4nc(NC(=O)C5CC5)cn4n3)cc2)nn1-c1ccccc1  GCN2(Kin.Dom.2,S808G)          %           0
 2  Cl.Cl.Nc1nc(-c2ccc3c(N)n[nH]c3c2)cc(N2CCCC(NC(=O)c3ccccc3)C2)n1 (stereo not drawn)  GCN2(Kin.Dom.2,S808G)          %           0
 3  Nc1nc(Nc2ccccc2)cc(-c2ccc3c(N)n[nH]c3c2)n1  GCN2(Kin.Dom.2,S808G)          %           0
 4  Cc1occc1-c1nc(N)c(OC[C@@H](N)Cc2c[nH]c3ccccc23)cc1-c1cc2c(C)n[nH]c2cn1  GCN2(Kin.Dom.2,S808G)          %           0
 5  Cc1n[nH]c2ccc(-c3cc(OC[C@@H](N)Cc4ccccc4)cnc3-c3ccoc3)cc12.O=C(O)C(F)(F)F.O=C(O)C(F)(F)F  GCN2(Kin.Dom.2,S808G)          %           0
 6  O=C(NCCCN1CCOC1=O)c1cnc(NCc2cc(Cl)ccc2Cl)nc1NC1CCCC1  GCN2(Kin.Dom.2,S808G)          %          29
 7  CN(C)CCOc1ccc(-c2cc(-c3c[nH]nc3-c3ccccn3)ccn2)cc1  GCN2(Kin.Dom.2,S808G)          %           0
 8  CN(C)CC(O)COc1ccc(Nc2nccc(-c3cnn4nc(N5CCOCC5)ccc34)n2)cc1 (stereo not drawn)  GCN2(Kin.Dom.2,S808G)          %          56
 9  Cc1ccc(-n2nc(C(C)(C)C)cc2NC(=O)Nc2ccc(OCCN3CCOCC3)c3ccccc23)cc1  GCN2(Kin.Dom.2,S808G)          %           0
10  Cl.Cl.NC[C@H](CC1CCCCC1)NC(=O)c1cc(Br)c(-c2ccnc3[nH]ccc23)s1  GCN2(Kin.Dom.2,S808G)          %           0
11  C[C@@H](Oc1cc(-c2cnn(C3CCNCC3)c2)cnc1N)c1c(Cl)ccc(F)c1Cl  GCN2(Kin.Dom.2,S808G)          %           0
12  CNC(=O)c1ccccc1Sc1ccc2c(/C=C/c3ccccn3)n[nH]c2c1  GCN2(Kin.Dom.2,S808G)          %           0
13  CCN(CC)CCCCNc1ncc2cc(-c3c(Cl)cccc3Cl)c(NC(=O)NC(C)(C)C)nc2n1  GCN2(Kin.Dom.2,S808G)          %          53
14  C[C@@H]1CCN(C(=O)CC#N)C[C@@H]1N(C)c1ncnc2[nH]ccc12  GCN2(Kin.Dom.2,S808G)          %           0
15  CC(C)N1C(=O)Cc2cc(Nc3ncc(C(F)(F)F)c(NCc4cccc(S(C)(=O)=O)c4)n3)ccc21  GCN2(Kin.Dom.2,S808G)          %          17
16   CC(C)Nc1cc(-c2ccc3c(N)n[nH]c3c2)nc(N)n1  GCN2(Kin.Dom.2,S808G)          %           0
17  C[C@H]1Oc2cc(cnc2N)-c2c(nn(C)c2C#N)CN(C)C(=O)c2ccc(F)cc21  GCN2(Kin.Dom.2,S808G)          %           0

###

Tested on: CAMK2A
Settings: concentration: 1 μM,replicates: in singlicate; n = 1
measured property: %Inh (%)

In [3]: df
Out[3]:
                                   structure  unit_info  meas_value
 0  CCN(CC)CCOc1ccc(Nc2ncc3cc(-c4c(Cl)cccc4Cl)c(=O)n(C)c3n2)cc1          %           4
 1  Cc1occc1-c1nc(N)c(OC[C@@H](N)Cc2c[nH]c3ccccc23)cc1-c1cc2c(C)n[nH]c2cn1          %          46
 2  Cc1n[nH]c2ccc(-c3cc(OC[C@@H](N)Cc4ccccc4)cnc3-c3ccoc3)cc12.O=C(O)C(F)(F)F.O=C(O)C(F)(F)F          %           0
 3  Cc1cc(C(=O)Nc2ccc(Oc3ccc4nc(NC(=O)C5CC5)cn4n3)cc2)nn1-c1ccccc1          %           0
 4  C[C@@H]1CCN(C(=O)CC#N)C[C@@H]1N(C)c1ncnc2[nH]ccc12          %           0
 5  CNC(=O)c1ccccc1Sc1ccc2c(/C=C/c3ccccn3)n[nH]c2c1          %          26
 6  C=CC(=O)Nc1cc2c(Nc3ccc(F)c(Cl)c3)ncnc2cc1OCCCN1CCOCC1          %           0
 7  Cl.Cl.NC[C@H](Cc1ccc(C(F)(F)F)cc1)NC(=O)c1cc(Br)c(-c2ccnc3[nH]ccc23)s1          %           0
 8  Cl.Oc1cc(-c2nc(-c3ccccc3)[nH]c2-c2ccncc2)ccc1Cl          %           0
 9  Cc1cc2cn[nH]c2cc1-c1cccc2c(N)c(C(N)=O)nnc12          %           0
10  COc1ccc(C[C@@H](CN)NC(=O)c2cc(Br)c(-c3ccnc4[nH]ccc34)s2)cc1.Cl.Cl          %           7
11  C[C@@H](Oc1cc(-c2cnn(C3CCNCC3)c2)cnc1N)c1c(Cl)ccc(F)c1Cl          %          12
12  CCn1c(-c2nonc2N)nc2c(C#CC(C)(C)O)nc(OCCN)cc21.Cl.Cl          %           0
13  CC(C)N1C(=O)Cc2cc(Nc3ncc(C(F)(F)F)c(NCc4cccc(S(C)(=O)=O)c4)n3)ccc21          %          22
14  NC(=O)c1cc(-c2ccccc2)cc2c(C3CCNCC3)c[nH]c12          %           0
15  C[C@H]1Oc2cc(cnc2N)-c2c(nn(C)c2C#N)CN(C)C(=O)c2ccc(F)cc21          %           5
